Each recorded value in this set is attributed to patent US9708334B2.

target: GlyT1 (Homo sapiens); construct: expressed in transfected cells; test: Glycine Transporter 1 (GlyT1) uptake assay, scintillation proximity assay of [14C]-glycine uptake; format: cell-based; conditions: SPA, four parameter logistic fit, read-out: GlyT1 (pIC50) (converted)
Sequence (P48067 whole entry): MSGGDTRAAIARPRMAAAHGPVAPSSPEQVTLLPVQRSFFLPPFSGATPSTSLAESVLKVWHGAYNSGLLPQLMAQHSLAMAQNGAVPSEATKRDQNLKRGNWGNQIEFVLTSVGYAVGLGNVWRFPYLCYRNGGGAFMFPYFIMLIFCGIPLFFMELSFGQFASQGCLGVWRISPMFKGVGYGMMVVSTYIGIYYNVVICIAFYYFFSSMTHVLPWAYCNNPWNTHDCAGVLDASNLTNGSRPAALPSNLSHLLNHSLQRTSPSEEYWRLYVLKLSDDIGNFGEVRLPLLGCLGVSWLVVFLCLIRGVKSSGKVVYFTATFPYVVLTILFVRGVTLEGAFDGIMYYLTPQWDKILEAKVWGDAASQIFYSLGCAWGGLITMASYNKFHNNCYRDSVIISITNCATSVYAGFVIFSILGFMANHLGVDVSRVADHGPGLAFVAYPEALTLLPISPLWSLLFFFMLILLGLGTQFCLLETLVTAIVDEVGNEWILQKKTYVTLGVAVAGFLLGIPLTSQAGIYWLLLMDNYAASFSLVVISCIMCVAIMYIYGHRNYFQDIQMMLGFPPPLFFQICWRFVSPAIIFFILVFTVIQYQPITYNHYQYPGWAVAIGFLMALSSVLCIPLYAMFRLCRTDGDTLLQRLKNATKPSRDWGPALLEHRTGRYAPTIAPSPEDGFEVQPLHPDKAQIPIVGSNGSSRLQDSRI
This listing pairs compounds with measured IC50.

{"compound": "CS(=O)(=O)c1ccc(N2CCC2)c(C(=O)N2CCc3nn(-c4ccccc4)cc3C2)c1", "measured result": "> 10000 nM"}

Looking for the measured IC50 of `CC1(COc2ccc(C#N)c(Cl)c2C(=O)N2CCc3nn(-c4ccc(F)cc4)cc3C2)CC1` , can you help?
100 to 1000 nM

====

biological target: GlyT1 (Homo sapiens); construct: expressed in transfected cells; experiment: Glycine Transporter 1 (GlyT1) uptake assay, scintillation proximity assay of [14C]-glycine uptake; format: cell-based; details: SPA, four parameter logistic fit, read-out: GlyT1 (pIC50) (converted)
This listing pairs compounds with measured IC50.

Looking for the measured IC50 of `C[C@H](Oc1ccc(C#N)c(Cl)c1C(=O)N1Cc2cn(-c3cccc(F)c3)nc2C1)C(F)(F)F` , can you help?
< 100 nM

Looking for the measured IC50 of CC(Oc1ccc(C#N)c(Cl)c1C(=O)N1CCc2nn(-c3ncc(F)cc3F)cc2C1)C(F)(F)F (stereo not drawn) , can you help?
100 to 1000 nM

Looking for the measured IC50 of `C[C@H](Oc1ccc(C#N)cc1C(=O)N1Cc2cnn(C3CCCC3)c2C1)C(F)(F)F` , can you help?
1000 to 10000 nM

Looking for the measured IC50 of CC(Oc1ccc(C#N)c(Cl)c1C(=O)N1CCc2nn(C)c(C(F)(F)F)c2C1)C(F)(F)F (stereo not drawn) , can you help?
1000 to 10000 nM

Looking for the measured IC50 of `COc1c(C#N)ccc(C2(OC)CCC2)c1C(=O)N1CCc2nn(-c3ccc(F)cc3)cc2C1` , can you help?
1000 to 10000 nM

Looking for the measured IC50 of `COc1c(C#N)ccc(C2(F)CCCC2)c1C(=O)N1Cc2cn(-c3cncc(F)c3)nc2C1` , can you help?
< 100 nM
